Tested on: KM12
measurement protocol: NCI tumour cell line growth inhibition, 48 h
Calls of active or inactive are those of the source. Rule as the data show it: active = GI50 up to about 1.1 µM and inactive = higher.
Kindly state GI50 for each of the entries shown.

For orientation, consider the following solved cases.
• COc1ccccc1NC(=S)Nc1cccc(C)n1 = 25.6 µM (inactive)
• Cc1ccc(S(=O)(=O)NC(=O)NCCc2c[nH]cn2)cc1 = > 100 µM (inactive)

Next compound, GI50 to be filled in.
Input: Give its GI50 value. Item: COc1ccc2c(c1)CCc1c(C(C)=O)c3ccccc3n1C2
Output: > 100 µM (inactive)

----------
Test system: SR
measurement protocol: NCI tumour cell line growth inhibition, 48 h
Calls of active or inactive are those of the source. Rule as the data show it: active = GI50 up to about 1.1 µM and inactive = higher.
Write down one outcome, taken from t (active), f (inactive)

Worked examples follow.
* C#CCn1c(=O)[nH]c(=O)c2cccnc21 | f
* [N-]=[N+]=NC1(c2ccccc2)C(=O)c2cccc3c2N(CCC3)C1=O (stereo not given) | f
* COc1ccc(C2(CC(C)O)SCCCS2)cc1 (stereo not given) | f
* O=CC1CCCc2ccccc21 (stereo not given) | f
* CC(=O)OC(OC(C)=O)c1ncccc1C(=O)OC(C)C | f
* CCOC(=O)c1c(-c2ccccc2)c(-c2ccccc2)cn1C | f
* COc1ccc(CNc2nc3cc(C(F)(F)F)ccc3nc2-c2ccccc2)cc1OC | f
* COc1ccc(/C=C/COC(C)=O)cc1OC | f
* Cc1cccc(NC(=O)/C=C/c2ccccc2)c1C | f
* O=C1CCC(=O)c2cc(Br)ccc2N1 | f

Input: Please let me know the test result on file for CC(=O)NC(CCCCN(Cc1ccccc1)C(=O)N(CCCl)N=O)C(=O)NCc1ccccc1 (stereo not given) .
Output: t

Input: Try this compound too: CCCOP(=O)(OCCC)OC(C(F)(F)F)C(F)(F)F
Output: f

Input: Try this compound too: CN(C)CCC(/C=C/c1ccccc1)=N\Nc1c(F)c(F)c(F)c(F)c1F
Output: f

Input: Try this compound too: CCOC(=O)/C=C(\C(=O)OCC)n1ccc(=O)n(Cc2cn(CCCCOC(C)=O)nn2)c1=O
Output: f

Input: Try this compound too: CCOC(=O)CC(=O)ON(C)C(=O)Cc1ccccc1
Output: f

Input: Try this compound too: CCCCNC(=S)OCCC(C)CCCC(C)C (stereo not given)
Output: f

Input: Try this compound too: O=c1ccc2cc(O)c(O)cc2o1 [ESCULETIN]
Output: f

Input: Try this compound too: C1CC[C@H]2SSC3CCCC[C@H]3SSC2C1 (stereo not given in full)
Output: f

Input: Try this compound too: Cn1c(=O)c2nc3sc4ccccc4c(=N)n3c2n(C)c1=O
Output: f

Input: Try this compound too: N#CCCN(CCCN(C(=O)Nc1ccccc1)c1ccccc1)C(=O)Nc1ccccc1
Output: f

----------
System: HL-60
measurement protocol: NCI tumour cell line growth inhibition, 48 h
Active and inactive are the calls of the source. No stated cut-off is given here; in the data, active = GI50 up to about 1.1 µM and inactive = higher.
Kindly state GI50 for each of the entries shown.

* CCOC(=O)Cc1csc2[n+]1C(=O)/C(=C\c1cccc(Cl)c1Cl)S2 | 19.5 µM (inactive)
* O=C(CNc1ccccc1Cl)Nn1c(-c2ccccc2)nc2ccccc2c1=O | 22.4 µM (inactive)
* COc1ccc2c(c1)CCc1c(C(C)=O)c3ccccc3n1C2 | 11.5 µM (inactive)
* COc1ccc(S(=O)(=O)N/N=C(\C)CN2C(=O)c3ccccc3C2=O)cc1 | > 100 µM (inactive)
* Brc1ccc2c3c1[C@@H]1O[C@@H]1c1cccc(c1-3)[C@@H]1O[C@H]21 | 19.6 µM (inactive)
* CCCCCC1=C2C(c3ccc(OC)cc3)=C(N)C(c3ccc(OC)cc3)=C3NC(=O)C(C=C1)C32 (stereo not given) | > 100 µM (inactive)
* CC(=O)OCC(C)(COC(C)=O)N1C(=O)C2C3c4ccccc4C(c4ccccc43)C2C1=O (stereo not given) | > 100 µM (inactive)
* O=CC1CCCc2ccccc21 (stereo not given) | > 63 µM (inactive)
* Nc1cc(Cl)cc2cc(Cl)cnc12 | 43.1 µM (inactive)
* Cc1cc(Cl)ccc1NC(=O)C(=O)Cc1nc2ccc(C(=O)c3ccccc3)cc2nc1O | 99.5 µM (inactive)

Go through the items and report each one's GI50.
1. CN(C)CCOc1ccc(I)cc1Cc1ccccc1
2. COc1ccc([C@H]2CC(=O)C[C@H](c3ccc(OC)cc3OC)C23C(=O)c2ccccc2C3=O)c(OC)c1
3. COc1ccccc1C1c2cc3c(cc2OC2(OC)COC(=O)C12)OCO3 (stereo not given)

Output:
4.74 µM (inactive)
> 100 µM (inactive)
3.03 µM (inactive)

Go through the items and report each one's GI50.
1. C#CCn1c(=O)ccn(/C(=C/C(=O)OCC)C(=O)OCC)c1=O
2. C#CCn1c(=O)[nH]c(=O)c2cccnc21

Output:
1. 3.44 µM (inactive)
2. > 100 µM (inactive)

----------
Tested on: PC-3
measurement protocol: NCI tumour cell line growth inhibition, 48 h
Calls of active or inactive are those of the source. No stated cut-off is given here; in the data, active = GI50 up to about 1.1 µM and inactive = higher.
readout: GI50

* CCCCCCCCCCCC(=O)OC[C@H](C[As](=O)(O)O)OC(=O)CCCCCCCCCCC | 2.9 µM (inactive)
* Cc1ccc2c(c1C)CC1(Cc3c(ccc4c3CCC4)C1=O)C2=O (stereo unspecified) | 62.2 µM (inactive)
* CCN(CC)c1nc(=O)c(C(=O)C(C)(C)C)c(C(C)(C)C)o1 | > 100 µM (inactive)

Go through the items and report each one's GI50.
1. C/C=C1\CC2C(=O)CCC2C2c3ccccc3OC12 (stereo unspecified)
2. O=C1C(Cl)C(c2cc3cc(Br)ccc3nc2Cl)N1c1c(Cl)cccc1Cl (stereo unspecified)
3. CN(CCCNCc1ccccn1)Cc1ccccc1O

Output:
> 100 µM (inactive)
20 µM (inactive)
65.3 µM (inactive)

----------
Test system: SK-MEL-2
measurement protocol: NCI tumour cell line growth inhibition, 48 h
The source made the active and inactive calls. No stated cut-off is given here; in the data, active = GI50 up to about 1.1 µM and inactive = higher.
Write down one outcome, taken from active, inactive

- Cn1c(=O)sc2cc(C(=S)N3CCOCC3)ccc21: inactive

Input: Please let me know the test result on file for CN(C)CCC(/C=C/c1ccccc1)=N\Nc1c(F)c(F)c(F)c(F)c1F .
Output: inactive

Input: Try this compound too: CC1(n2nc(-c3ccccc3)n(-c3ccccc3)c2=O)CSC1
Output: inactive

Input: Try this compound too: COC(=O)C(Cc1ccccc1)NP(=O)(O)OCC1OC(n2cc(F)c(=O)[nH]c2=O)CC1O (configuration not stated)
Output: inactive

Input: Try this compound too: CN(C1=NS(=O)(=O)N=C(N(C)c2ccccc2)O1)c1ccccc1
Output: inactive

Input: Try this compound too: O=C(NI1OC(=O)c2ccccc21)c1ccc(Cl)cc1
Output: inactive

----------
Kindly state GI50 for each of the entries shown.
Test system: SK-MEL-28
measurement protocol: NCI tumour cell line growth inhibition, 48 h
Calls of active or inactive are those of the source. No stated cut-off is given here; in the data, active = GI50 up to about 1.1 µM and inactive = higher.

Go through the items and report each one's GI50.
1. O=S(=O)(NNc1ccccc1)c1ccccc1
2. C[C@@H]1OC(=O)C[C@H]2CC(=O)N(CCC3CN(C(=O)c4ccccc4)c4ccccc43)C[C@@H]21 (stereo partly drawn)
3. CN1OC(=O)N(C)C1c1ccccc1 (stereo not drawn)
4. CC#CCC1CCC(OCC)=CC1=O (stereo not drawn)
5. CC(=O)OCCCC(NC(=O)OC(C)(C)C)C(=O)NC(CCCOC(C)=O)C(=O)NC(Cc1ccc([N+](=O)[O-])cc1)C(=O)NCC(=O)OCc1ccccc1 (stereo not drawn)
6. Cc1ccc2c(c1CCCC(C)(C)O)C(=O)C(O)=C(C(C)C)C2=O
7. CNC(=O)OCc1nc(SC)n(C)c1COC(=O)NC
8. Cc1nc2ccc(Cl)cc2c(-n2ccnc2)c1CCn1ccnc1

Output:
48.2 µM (inactive)
> 100 µM (inactive)
> 100 µM (inactive)
> 100 µM (inactive)
17.9 µM (inactive)
> 100 µM (inactive)
188 µM (inactive)
29.9 µM (inactive)

Go through the items and report each one's GI50.
1. CCN(CC)CC(=O)NC1c2ccccc2Oc2ccccc21
2. COc1ccc(S(=O)(=O)N/N=C(\C)CN2C(=O)c3ccccc3C2=O)cc1

Output:
> 100 µM (inactive)
> 100 µM (inactive)

Go through the items and report each one's GI50.
1. CS(=O)(=O)c1nc(-c2cc3c(c(S(C)(=O)=O)n2)CCC3)cc2c1CCCCC2
2. COc1ccc(Br)c(C(=O)N2CCc3ccccc32)c1N
3. Cc1ccc(/C=C2\CCC/C(=C\c3ccc(O)c(CN4CCCCC4)c3)C2=O)cc1
4. Clc1ccc2c(Cl)nc(-c3ccccc3)nc2c1
5. NC(=O)N/N=C1\CC2C3CC4C2C4C13 (stereo not drawn)

Output:
1: > 100 µM (inactive); 2: 52.7 µM (inactive); 3: 15.7 µM (inactive); 4: 32.2 µM (inactive); 5: > 100 µM (inactive)

Go through the items and report each one's GI50.
1. O=C1C(Cl)C(c2cc3cc(Br)ccc3nc2Cl)N1c1c(Cl)cccc1Cl (stereo not drawn)
2. O=C(/C=C\c1ccc([N+](=O)[O-])cc1)c1ccccc(=O)c1O
3. COC1=CC2(C=CC1=O)CCNC1=C2C(=O)c2nc[nH]c2C1=O (stereo not drawn)

Output:
["> 25 µM (inactive)", "1.41 µM (inactive)", "> 100 µM (inactive)"]

// provenance: ChEMBL document CHEMBL1201862
